Would you kindly list growth inhibition for each of these compounds?
test: NCI Yeast Anticancer Drug Screen. Data for the cln2 rad14 strain (AID 165);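 also: 0% = growth equal to vehicle treated cultures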; conditions: S. cerevisiae cln2 rad14 strain, at 5.0 µM (retest, dose inferred, filed as 0.5), hits give high values
Compounds without any hit were thinned out: in the full panel of roughly 79,000, 15% have a hit.
Numbers only, in %.

Answered examples (4):
- compound: "CC(/C=C/c1cccc(C)c1)=N\\NC(N)=S"
  readoutName: "growth inhibition"
  unitName: "%"
  reportedMeasurement: 1
- compound: "NNC(=S)N/N=C(/C(=O)Nc1ccc(Cl)c(Cl)c1)C(C1OC(=O)c2ccccc21)[N+](=O)[O-] (stereo not given)"
  readoutName: "growth inhibition"
  unitName: "%"
  reportedMeasurement: 31
- compound: "CC1(C)OC2COC3(CNO)OC(C)(C)OC3C2O1 (stereo not given)"
  readoutName: "growth inhibition"
  unitName: "%"
  reportedMeasurement: -5
- compound: "N/C(=N\\N=C/c1ccc(O)c(O)c1O)NO"
  readoutName: "growth inhibition"
  unitName: "%"
  reportedMeasurement: -2

Form field: reported growth inhibition of `CC(=O)Nc1ccc(-c2nnc(SCC(=O)Nc3cccc(Cl)c3)o2)cc1` 15

---

assay: NCI Yeast Anticancer Drug Screen. Data for the rad50 strain (AID 155);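 also: 0% = growth of vehicle-only cultures of the same strain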; conditions: S. cerevisiae rad50 strain growth inhibition; at 50.0 µM; hits give high values
Compounds without any hit were thinned out: in the full panel of roughly 79,000, 15% have a hit. Active and inactive are the calls of the source. No stated cut-off is given here; in the data, active means growth inhibition above about 70%; inactive means the rest.
readoutName: growth inhibition

- compound: "O=[N+]([O-])c1ccc(O)c(C=Nc2ccccc2)c1"
  reportedMeasurement: "74.3% (active)"
- compound: "COc1cccc2c1C(=O)c1c(O)c3c(c(O)c1C2=O)CC(O)(C(C)=O)CC3OC1CC(NCC2(O)OCC(O)C2O)C(O)C(C)O1 (stereo not given)"
  reportedMeasurement: "88.8% (active)"
- compound: "CC(=O)OCC1OC(n2c(O)c(N=NC(N)=S)c3ccc([N+](=O)[O-])cc32)C(OC(C)=O)C1OC(C)=O (stereo not given)"
  reportedMeasurement: "96.5% (active)"
- compound: "CC(C)n1nnc2c3ccccc3c3ccccc3c21"
  reportedMeasurement: "-7.5% (inactive)"
- compound: "CC(=O)/C(=C\\c1cccc(Cl)c1)C(=O)CCN(C)C"
  reportedMeasurement: "14.8% (inactive)"

Could you report growth inhibition for every entry in the following list?
1. COC(=O)c1ccc(C)cc1C1CN=NC12Cc1cccc(C)c1C2=O (stereo not given)
2. COc1cc(OC)c(OC)cc1/C=C\c1nccc2ccccc12
3. Cc1cc2c(C(C)C)c(O)c(O)c(C=Nc3ccc(C(=O)O)cc3)c2c(O)c1-c1c(C)cc2c(C(C)C)c(O)c(O)c(C=Nc3ccc(C(=O)O)cc3)c2c1O
4. c1ccc(NNc2ccc3ccccc3n2)cc1
5. O=C1/C(=C\c2ccc(Cl)cc2Cl)Sc2scc(-c3cccc([N+](=O)[O-])c3)[n+]21

26.8% (inactive)
92.9% (active)
91.8% (active)
38.6% (inactive)
85.6% (active)

Could you report growth inhibition for every entry in the following list?
1. Cc1ccc(S(=O)(=O)Nn2c(S)c(C#N)c(-c3ccc(Cl)cc3)c(C#N)c2=O)cc1
2. CCC(C)N(C(=O)c1ccccc1)c1ccccc1 (stereo not given)
3. CCCCN(CCCC)CC(O)c1cc(-c2ccc(Cl)cc2)nc2c(C)cccc12 (stereo not given)
4. CCN=C(N)Nc1nc(-c2ccc(Cl)cc2)cs1

1. 55.6% (inactive)
2. 2.8% (inactive)
3. 98% (active)
4. 98.8% (active)

Form field: reported growth inhibition of `Cc1c[nH]c2nc(C)n(-c3ccccc3)c(=N)c12` 6.1% (inactive)

---

test: NCI Yeast Anticancer Drug Screen. Data for the sgs1 mgt1 strain (AID 161);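 also: 0% = growth of cultures given vehicle only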; conditions: S. cerevisiae sgs1 mgt1 strain, at 5.0 µM (retest, dose inferred, filed as 0.5), hits give high values
About 79,000 compounds went through this panel and 15% of them were active in at least one assay; those are over-represented in the sample as a whole. Active and inactive are the calls of the source. No stated cut-off is given here; in the data, active means growth inhibition above about 70%; inactive means the rest.
readoutName: growth inhibition

Answered examples (5):
- compound: "COc1ccc(/C(Cl)=C(\\C=O)c2ccc(Cl)c(Cl)c2)cc1"
  reportedMeasurement: "13% (inactive)"
- compound: "CCCCn1c(C)nc2cc(C(F)(F)F)cc(N)c21"
  reportedMeasurement: "0% (inactive)"
- compound: "COc1ccc(-c2nc(C)[nH]c(=O)c2Cc2c(O)ccc3ccccc23)cc1"
  reportedMeasurement: "1% (inactive)"
- compound: "Cc1ccc2c(c1)C(O)(c1ccccc1)C(c1ccccc1)C(c1ccccc1)O2 (stereo unspecified)"
  reportedMeasurement: "69% (inactive)"
- compound: "COC(=O)/C(C#N)=C(/SC)N(C)C"
  reportedMeasurement: "2% (inactive)"

Could you report growth inhibition for every entry in the following list?
1. CCSc1c2ccccc2nc2c(OC)ccc(OC)c12
2. COc1ccc(/C=C2\Sc3scc(-c4ccc([N+](=O)[O-])cc4)[n+]3C2=O)cc1OC
3. COc1ccc(CN2C(=O)C(Cl)=C(Cl)C2=O)c(OC)c1
4. Clc1nn2nnnc2c2ccccc12
5. NCCNC[Si](c1ccccc1)(c1ccccc1)c1ccccc1

1: -7% (inactive); 2: -3% (inactive); 3: -2% (inactive); 4: -46% (inactive); 5: -10% (inactive)

Form field: reported growth inhibition of OCCCC(Sc1ccccc1)c1ccccc1 (stereo unspecified) -15% (inactive)

---

assay: NCI Yeast Anticancer Drug Screen. Data for the mlh1 rad18 strain (AID 175); settings: S. cerevisiae mlh1 rad18 strain growth inhibition; at 5.0 µM (retest, dose inferred, filed as 0.5); hits give high values
The panel holds about 79,000 compounds, 15% with a hit somewhere; the sample as a whole holds those more often.
Would you kindly list growth inhibition for each of these molecules?
Give bare numbers, in %.

Answered examples (7):
- molecule: "[Pt].c1ccc(P(CCP(CCP(c2ccccc2)c2ccccc2)CCP(c2ccccc2)c2ccccc2)c2ccccc2)cc1"
  unitName: "%"
  growth inhibition: 17
- molecule: "Cc1nn(C(=S)S)c(C)c1N=Nc1cccc(F)c1"
  unitName: "%"
  growth inhibition: -1
- molecule: "Oc1ccc(C2CCc3ccccc32)cc1 (stereo not drawn)"
  unitName: "%"
  growth inhibition: -7
- molecule: "CN(C)NC(=S)C(F)(F)F"
  unitName: "%"
  growth inhibition: -2
- molecule: "COc1cc(OC)c(/C=C\\c2ccnc3ccccc23)c(OC)c1"
  unitName: "%"
  growth inhibition: 41
- molecule: "NCCNC[Si](c1ccccc1)(c1ccccc1)c1ccccc1"
  unitName: "%"
  growth inhibition: -12
- molecule: "N#CCCN(CCC#N)c1ccc(C(Sc2ccccc2)C(NC(=O)c2cc([N+](=O)[O-])ccc2Cl)C(=O)Sc2ccccc2)cc1 (stereo not drawn)"
  unitName: "%"
  growth inhibition: 47

Form field: reported growth inhibition of `O=C1CCSC(=S)N1c1ccccc1C(F)(F)F` 1

---

test: NCI Yeast Anticancer Drug Screen. Data for the rad50 strain (AID 155);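 also: 0% = growth of vehicle-only cultures of the same strain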; settings: S. cerevisiae rad50 strain growth inhibition; at 5.0 µM (retest, dose inferred, filed as 0.5); hits give high values
Compounds without any hit were thinned out: in the full panel of roughly 79,000, 15% have a hit.
readoutName: growth inhibition (%)
Give bare numbers, in %.

Answered examples (3):
- compound: "O=Cc1cc2c(s1)C(=O)c1sccc1C2=O"
  reportedMeasurement: 93
- compound: "Cc1cc(C)c([O-])c(-[n+]2c(-c3ccccc3)cc(-c3ccccc3)cc2-c2ccccc2)c1"
  reportedMeasurement: 14
- compound: "Clc1cc(Cl)c2c(c1)nc(Cl)c1cc(Cl)ccc12"
  reportedMeasurement: -13

Could you report growth inhibition for every entry in the following list?
1. CC1=CC(=O)c2c(O)c3c(c(O)c2C1=O)C1C(O)C(C3=O)C23C(=O)c4c(O)c(C)cc(O)c4C(O)=C2C(=O)CC(O)C13 (stereo not drawn)
2. CCN(CC)CC(O)CNc1cc(C)nc(/N=C(\N)Nc2ccc(Cl)c(Cl)c2)n1 (stereo not drawn)
3. c1ccc([P+](C[P+](c2ccccc2)(c2ccccc2)c2ccccc2)(c2ccccc2)c2ccccc2)cc1
4. O=S1OCCS1 (stereo not drawn)
5. C1=C(C2=CCCc3ccccc32)c2ccccc2CC1
6. CCCCCNC(=O)c1ccc(Cl)c(Cl)c1
7. COc1ccc2nc3cccc([N+](=O)[O-])c3c(NCCO)c2c1

1: -27; 2: 0; 3: 98; 4: 10; 5: -1; 6: 6; 7: 75

---

test: NCI Yeast Anticancer Drug Screen. Data for the cln2 rad14 strain (AID 165);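 also: 0% = growth equal to vehicle treated cultures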; settings: S. cerevisiae cln2 rad14 strain, at 5.0 µM (retest, dose inferred, filed as 0.5)
This is part of a sample that, as a whole, favours compounds with a hit. Of some 79,000 tested, about 15% had one in any assay. Active and inactive are the calls of the source. Cut-off read from the data, not from the text of the source: active = growth inhibition above about 70%; inactive = the rest.
Please state which outcome applies, choosing from YES = active, NO = inactive

Known results for compounds:
- compound: "CC(CC(C)[C@H]1CCC2[C@H]3C(CC[C@@]21C)[C@@]1(C)CCC(O)C[C@H]1C[C@@H]3O)C(=O)O (stereo partly specified)"
  qualitativeLabel: "NO"
- compound: "COc1ccccc1C(=O)c1ccc2ccccc2c1"
  qualitativeLabel: "NO"
- compound: "NNC(=O)N/N=C(/CC1(O)C(=O)Nc2ccc(Br)cc21)c1ccccc1 (stereo unspecified)"
  qualitativeLabel: "NO"
- compound: "Cc1cc(O)c(O)cc1C/C=C/c1ccccc1"
  qualitativeLabel: "NO"
- compound: "COc1cc(/C=C/C(=O)c2ccc3ccccc3c2)cc(OC)c1OC"
  qualitativeLabel: "NO"

Recorded test call requested for CCCCNCCC(SSSC(CCNCCCC)c1ccc(Cl)cc1)c1ccc(Cl)cc1 (stereo unspecified) NO

Recorded test call requested for N#CC(/C=C/c1ccccc1)(NO)Nc1cccc(Cl)c1 (stereo unspecified) NO

Recorded test call requested for O=C1CCC(Cc2ccc(Br)cc2)C(=O)N1 (stereo unspecified) NO

Reference source: PubChem BioAssay (NCI)
